PROTOCOL TEXT: NCI Yeast Anticancer Drug Screen. Data for the mlh1 rad18 strain (AID 175)
REPORTED CONDITIONS: S. cerevisiae mlh1 rad18 strain growth inhibition; at 50.0 µM (retest, dose inferred, filed as 5.0); active compounds read high
The panel holds about 79,000 compounds, 15% with a hit somewhere; the sample as a whole holds those more often. Calls of active or inactive are those of the source. Cut-off read from the data, not from the text of the source: active = growth inhibition above about 70%; inactive = the rest.
Provide the reported growth inhibition of each item.

COMPOUND	ENDPOINT VALUE
COC(C)(C)[C@@H]1CCCN1C1=C(C)C(=O)OC1	99% (active)
C=C1CC2(OC1=O)C(=O)N(C)c1ccccc12 (stereo not drawn)	71% (active)
Fc1ccc(NC(=S)SCc2ccccc2)cc1	15% (inactive)
CC1=CC(=O)c2c(O)c3c(c(O)c2C1=O)C1C(O)C(C3=O)C23C(=O)c4c(O)c(C)cc(O)c4C(O)=C2C(=O)CC(O)C13 (stereo not drawn)	96% (active)
c1csc(CNCc2cccs2)c1	-7% (inactive)

Quick request: growth inhibition for each listed item, please.
1. O=C(O)C(c1ccccc1)c1ccc(-c2ccccc2)cc1 (stereo not drawn)
2. C[n+]1c(-c2ccc(/C=N/Nc3ccnc(N/N=C/c4ccc(-c5cn6ccccc6[n+]5C)cc4)n3)cc2)cn2ccccc21

a:
["80% (active)", "99% (active)"]

Quick request: growth inhibition for each listed item, please.
1. SCCc1ccccn1
2. Nc1ccc(C(=O)NN2C(=O)C(Cl)C2c2cc(Br)cc(Br)c2O)cc1 (stereo not drawn)
3. Nc1ccccc1SC(C[N+](=O)[O-])c1ccc2c(c1)OCO2 (stereo not drawn)
4. CCN(CC)C(=O)CCCC1CCCCC1
5. CN(C)c1ccccc1[CH2][Ga]([Cl])[CH2]c1ccccc1N(C)C
6. COc1ccc(/C(Cl)=C(\C=O)c2ccc(Cl)c(Cl)c2)cc1
7. C=CCN1CCC(OC(=O)C(O)(C#CC)C2CCCC2)CC1 (stereo not drawn)
8. COc1ccc2c(c1)C1(C)CCCC(C)(C(=O)O)C1CC2 (stereo not drawn)

a:
1: 19% (inactive); 2: 85% (active); 3: 99% (active); 4: 7% (inactive); 5: 98% (active); 6: 79% (active); 7: 66% (inactive); 8: 98% (active)

Quick request: growth inhibition for each listed item, please.
1. Cc1ccc(S(=O)(=O)OC(COC(=O)c2ccc([N+](=O)[O-])cc2)C2OC(C)(C)OC2C(SCc2ccccc2)SCc2ccccc2)cc1 (stereo not drawn)
2. CC1COC(c2cn[nH]c2C(N)=O)C1O (stereo not drawn)
3. Clc1cc[c]([Sn]([Cl])([O][Sn]([Cl])([c]2ccc(Cl)cc2)[c]2ccc(Cl)cc2)[c]2ccc(Cl)cc2)cc1
4. Oc1ccc(C2CCCCC2)cc1
5. CSc1nc(N)c2cnn(C3OC(CO)C(O)C3O)c2n1 (stereo not drawn)
6. CCCCN(CCCC)CC(O)c1cc(-c2ccc(Cl)cc2)nc2cc(C)ccc12 (stereo not drawn)
7. C/C(=N\NC(=S)N1CCN(C2CCCCC2)CC1)c1ccccn1
8. Cc1cc([N+](=O)[O-])c2nnnn2c1

a:
["-2% (inactive)", "16% (inactive)", "95% (active)", "40% (inactive)", "-12% (inactive)", "98% (active)", "85% (active)", "65% (inactive)"]

---

PROTOCOL TEXT: NCI Yeast Anticancer Drug Screen. Data for the rad50 strain (AID 155);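 note: 0% = growth of vehicle-only cultures of the same strain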
REPORTED CONDITIONS: S. cerevisiae rad50 strain growth inhibition; at 50.0 µM (retest, dose inferred, filed as 5.0)
About 79,000 compounds went through this panel and 15% of them were active in at least one assay; those are over-represented in the sample as a whole. Calls of active or inactive are those of the source. Rule as the data show it: active = growth inhibition above about 70%; inactive = the rest.
Classes to choose from: active, inactive

Below, 5 compounds whose answers are already recorded.
COMPOUND	CLASSIFICATION
CCCCc1c2c(nc3c1CC/C(=C\c1ccccc1)C3=O)CCCC2	active
O=C(O)C/C(=C\c1ccco1)C(=O)O	inactive
O=C(O)c1ccc2c(Br)ccc3c2c1CC3	inactive
CC1C(=O)C(Br)CC2C1(C)CCC1C2(C)CCC2(C)C3CC(C)(C)CCC3(C)CCC12C (stereo unspecified)	inactive
Cc1ccc(SCc2nc3ccccc3c(C)[n+]2[O-])cc1	active

Could you now look at the following compound, please?
q: Hi, sorry to bother you, what did the test record for Cc1ccc(C(=O)OCC(C)C)cc1N=NN(C)C ?
a: inactive

---

PROTOCOL TEXT: NCI Yeast Anticancer Drug Screen. Data for the mec2-1 strain (AID 157)
REPORTED CONDITIONS: S. cerevisiae mec2-1 strain, at 50.0 µM (retest, dose inferred, filed as 5.0), active compounds read high
About 79,000 compounds went through this panel and 15% of them were active in at least one assay; those are over-represented in the sample as a whole.
VALUE KIND: growth inhibition (%)
Answers are plain numbers, in %.

Example entries and their recorded answers appear below.
COMPOUND	growth inhibition, %
Cn1c(=O)c2c(nc([N+](=O)[O-])n2C)n(C)c1=O	39
Cn1c(=O)c2c(nc(OCC(C)(C)C)n2C)n(C)c1=O	5
COC(=O)C1=C(C(=O)OC)C2C(C)=CC(C)=CN2C(C(=O)OC)=C1C(=O)OC (stereo not given)	2
CCCC/C=C(/CCCNCCCC)[Si](C)(C)C	99
CC(=O)N(C1=C(Cl)C(=O)c2ccccc2C1=O)c1ccc(F)cc1	98
O=C(CC(C[N+](=O)[O-])c1ccc2c(c1)OCO2)c1ccccc1 (stereo not given)	17
Cc1cc2c(cc1C)C(=O)OC2=O	-1
CC(C)OP(=O)(OC(C)C)/C(=N/Nc1ccc([N+](=O)[O-])cc1)NNC(=O)c1ccccc1	74

Quick request: growth inhibition for each listed item, please.
1. C=CCOc1ccc(C2(c3ccc(OCC=C)cc3)C(=O)Nc3ccccc32)cc1
2. CCOC(=O)C1=C(Nc2ccc(Cl)c(Cl)c2)OC/C1=N\NS(=O)(=O)c1ccc(C)cc1

a:
1. 92
2. 15

---

PROTOCOL TEXT: NCI Yeast Anticancer Drug Screen. Data for the cln2 rad14 strain (AID 165);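 note: 0% = growth equal to vehicle treated cultures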
REPORTED CONDITIONS: S. cerevisiae cln2 rad14 strain, at 5.0 µM (retest, dose inferred, filed as 0.5), active compounds read high
Protocol: Growth inhibition of yeast strains with defined genetic alterations is measured as a screen for potential anti-cancer activity. Selected strains with alterations in DNA damage repair or cell cycle control were exposed to compounds and growth inhibition was measured relative to vehicle treated controls. The strain used in this assay is cln2 rad14
This is part of a sample that, as a whole, favours compounds with a hit. Of some 79,000 tested, about 15% had one in any assay.
Answer n if growth inhibition is under 20%, and y if it is 20% or more.

Below, 5 molecules whose answers are already recorded.
MOLECULE	CLASSIFICATION
CC1(C)C(=O)C(C(Cl)(Cl)Cl)=C(Cl)C(=O)C1(Cl)Cl	y
COCCNC(=O)C1C(=O)N(CCOC)C(=O)/C1=N/N (configuration not stated)	n
CCC#CC(O)(C(=O)OCC)C1CCCC1 (configuration not stated)	n
C/C(=N\NC(=S)N1CC(C)OC(C)C1)c1ncccn1 (configuration not stated)	y
C=CC(=C)OC	n

q: Confirm if growth inhibition reported for the molecule C=C(C)CCC(=C)C is 20% or above.
a: n

q: Same lookup for CC(CC=NCCN=CCC(C)CC(C)(C)C)CC(C)(C)C (configuration not stated) , please.
a: n

q: Same lookup for C=[CH][Sn]([CH]=C)([S]c1cccc2cccnc12)[S]c1cccc2cccnc12 , please.
a: n

q: Same lookup for [N-]=[N+]=CC(=O)c1ccc(C(=O)C=[N+]=[N-])cc1 , please.
a: n

q: Same lookup for CC(NC(=O)OC(C)(C)C)C(=O)NC(Cc1ccccc1)C(=O)NCC(=O)Oc1c(Cl)c(Cl)c(Cl)c(Cl)c1Cl (configuration not stated) , please.
a: y

q: Same lookup for CCCCOC(=O)c1n[nH]c(C)c1N=NN(C)C , please.
a: y

q: Same lookup for Cc1[nH]c2ccccc2c1C1=CC2(C)Nc3ccccc3C2C(C)(C)C1 (configuration not stated) , please.
a: n

---

Provide the reported growth inhibition of each item.
PROTOCOL TEXT: NCI Yeast Anticancer Drug Screen. Data for the sgs1 mgt1 strain (AID 161);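 note: 0% = growth of cultures given vehicle only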
REPORTED CONDITIONS: S. cerevisiae sgs1 mgt1 strain, at 50.0 µM (retest, dose inferred, filed as 5.0), active compounds read high
This is part of a sample that, as a whole, favours compounds with a hit. Of some 79,000 tested, about 15% had one in any assay.
One number for each entry, in %.

Example entries and their recorded answers appear below.
COMPOUND	VALUE KIND	ENDPOINT VALUE
CCCOCCC#N	growth inhibition	1
COc1ccc(/C=N/NC(=O)c2ccco2)cc1OC	growth inhibition	5
COc1cc(C(c2cc3c(cc2O)OCO3)N2CCN(C(c3cc(OC)c(O)c(OC)c3)c3cc4c(cc3O)OCO4)CC2)cc(OC)c1O (configuration not stated)	growth inhibition	15

Quick request: growth inhibition for each listed item, please.
1. COC(O)C12OC3CO[Si](C(C)C)(C(C)C)O[Si](C(C)C)(C(C)C)OC3C1Oc1nc(=O)ccn12 (configuration not stated)
2. CCOC(=O)CC(N)CC(=O)OCC
3. S=C(C(=S)N1CCOCC1)N1CCOCC1
4. CCC(CC)C(=O)O.[Ag]

a:
1: 98; 2: -64; 3: 27; 4: 99
